Target: TRMT1
Test: pooled miR-30 sensor sort-seq; sequence = guide strand
Conditions: shRNA
endpoint: sensor-assay potency score (higher = more potent)

[
  {
    "seq text": "TTTGCGTGTCCTTCTCTCCTGG",
    "reported value": 0.33
  }
]

Kindly consider the entry below.
Lab note: TRMT1 assay, enter sensor-assay potency score (higher = more potent) for `TAGAAGTCAGCGCTGATGCTGA` here
-0.13

* * *

Target: CXCL3
Assay: pooled miR-30 sensor sort-seq; sequence = guide strand
Details: shRNA
Below is a list of entries, each paired with its recorded sensor-assay potency score (higher = more potent) value.

Below, 5 sequences whose answers are already recorded.
[
  {
    "seq text": "TAGTCAAACACATTAAGTCCTT",
    "reported value": -0.625
  },
  {
    "seq text": "TTGAGACAAGCTTTCTTCCCAT",
    "reported value": 0.654
  },
  {
    "seq text": "ATGATTTTCTGAACCATGGGGG",
    "reported value": -0.165
  },
  {
    "seq text": "TTTGATGAAACACACTCACATC",
    "reported value": -1.05
  },
  {
    "seq text": "TTTCTTCCCATTCTTGAGTGTG",
    "reported value": -0.403
  }
]

Find the measured sensor-assay potency score (higher = more potent) of `TTCGATGATTTTCTGAACCATG` and report it.
-0.954

Recall and state the measured sensor-assay potency score (higher = more potent) for `TAAATAATCAGGACTGAGCTAT` .
-0.218

Return the recorded sensor-assay potency score (higher = more potent) value; entry: `TGAGACAAGCTTTCTTCCCATT`
-1.23

* * *

Entries and their sensor-assay potency score (higher = more potent)
Target: SCGB1D4
Experiment: pooled miR-30 sensor sort-seq; sequence = guide strand
Settings: shRNA
Please give only the number in your answer, with no unit.

Below, each entry is followed by its recorded sensor-assay potency score (higher = more potent) result.
[
  {
    "seq text": "AATAAGAAGACTGTGATCTCAG",
    "measurement target": "SCGB1D4",
    "reported value": 0.355
  },
  {
    "seq text": "ATTAAGTTTGGCAACTTGGAGG",
    "measurement target": "SCGB1D4",
    "reported value": -1.05
  },
  {
    "seq text": "AAGTTTGGCAACTTGGAGGTTT",
    "measurement target": "SCGB1D4",
    "reported value": -0.0937
  }
]

In one line, give reported sensor-assay potency score (higher = more potent) of the entry `TATCTGATCGGTGCAGTGCTTC` .
-0.707

Note down sensor-assay potency score (higher = more potent) recorded for `TTAAAAGATATCTGATCGGTGC`
0.0419

Report measured sensor-assay potency score (higher = more potent); entry is `TCTTAAAAGATATCTGATCGGT`
-0.48

Give sensor-assay potency score (higher = more potent) for `TTTTTAGTGAAGATCAGGGTGT`
0.0112

* * *

Target: ITFG2
Assay: pooled miR-30 sensor sort-seq; sequence = guide strand
Settings: shRNA
# sensor-assay potency score (higher = more potent) values compiled below
Reply with just the number.

[
  {
    "seq text": "TTGAGGGAGCACACTGTGGTGG",
    "reported value": -0.228
  },
  {
    "seq text": "TATCGTTATCAACGTCTCCGAG",
    "reported value": -0.305
  },
  {
    "seq text": "TTTTCATCCACTTGGAAGCGGA",
    "reported value": -0.742
  },
  {
    "seq text": "TAACGTATCGTTATCAACGTCT",
    "reported value": 0.345
  },
  {
    "seq text": "TAGATCTTCTGGTTGAAAGTGA",
    "reported value": -0.00804
  },
  {
    "seq text": "TACACAGACACCTTCCCGCTGG",
    "reported value": -0.00421
  },
  {
    "seq text": "TTTGATGTTGCCAATTAGGTGA",
    "reported value": -0.267
  }
]

# return recorded sensor-assay potency score (higher = more potent) for input `ATCGTTATCAACGTCTCCGAGG`
-1.09

* * *

Biological target: ZNF250
Test: pooled miR-30 sensor sort-seq; sequence = guide strand
Conditions: shRNA
Lab note: compare sensor-assay potency score (higher = more potent) against -0.5. Equal or greater, write condition met. Smaller, write condition not met.

Use the examples below as a reference point.
[
  {
    "seq text": "TTAACAGAGACTTCTCTTGGGC",
    "measurement target": "ZNF250",
    "group label": "condition met"
  },
  {
    "seq text": "TTTTGTGACACTGAATCGCCAA",
    "measurement target": "ZNF250",
    "group label": "condition met"
  },
  {
    "seq text": "TACACTGCACACATAGGGCTTC",
    "measurement target": "ZNF250",
    "group label": "condition not met"
  },
  {
    "seq text": "TTTGTGACACTGAATCGCCAAA",
    "measurement target": "ZNF250",
    "group label": "condition not met"
  },
  {
    "seq text": "TGTATTTTGACTCTCTCCCTTG",
    "measurement target": "ZNF250",
    "group label": "condition met"
  }
]

Textbook exercise: given the entry `TAAGACCTGAACTTCACGGTGG` , state whether its sensor-assay potency score (higher = more potent) is greater than or equal to -0.5.
condition met

* * *

Molecular target: ZSWIM5
Experiment: pooled miR-30 sensor sort-seq; sequence = guide strand
Conditions: shRNA
Listed below: sensor-assay potency score (higher = more potent) values for each entry.

Here are 6 sequences together with their reported answers.
[
  {
    "seq text": "TTTGTCAGTGGACATGAGCTTT",
    "reported value": -0.796
  },
  {
    "seq text": "TAGCTCATCGTCCAGCTGCAGC",
    "reported value": -1.21
  },
  {
    "seq text": "TTAAAGAGTAGTCTTTCACTTT",
    "reported value": -0.123
  },
  {
    "seq text": "TAGTCTTTCACTTTCCCGCTGG",
    "reported value": 0.269
  },
  {
    "seq text": "TTGAGTTGAGTTGCTTTCCAGA",
    "reported value": -0.443
  },
  {
    "seq text": "TAGTGAATACTGTTCGTCTTGG",
    "reported value": -0.686
  }
]

For the next question, use this sequence.
Answer with sensor-assay potency score (higher = more potent) of `TTGAGGTTGTCGATGAACTGGG` measured for ZSWIM5.
-0.0434

* * *

Target: SNX32
Test: pooled miR-30 sensor sort-seq; sequence = guide strand
Settings: shRNA
endpoint: sensor-assay potency score (higher = more potent)
Please respond with just the number, no unit label.

Given the sequence `TTAGCTGGTTGACTTCCTGTGT` , write its reported sensor-assay potency score (higher = more potent).
0.0166

Item `TTCGTGCATCGCAACTGTCTTC` : provide sensor-assay potency score (higher = more potent)
-0.785

Fill in reported sensor-assay potency score (higher = more potent) for this entry: `TTTGAGCTCCAGCTCTGCCAGC`
-1.19

Supply reported sensor-assay potency score (higher = more potent) belonging to this sequence: `TAAGGAGCTGTCTCCCTGCAGA`
-1.06

Specify sensor-assay potency score (higher = more potent) for `TGCGTCAGAAATCTCCACCTGT` and stop.
0.185

Give sensor-assay potency score (higher = more potent) for the following sequence: `AATTTGAGGAAGCTCGTCCTTA`
-0.0375

Determine its reported sensor-assay potency score (higher = more potent): `TTGAACAGTGAATTTCACCTTG`
0.337

Supply sensor-assay potency score (higher = more potent) value. Item: `TACTCCAACAGGAAGGTCCTCT`
0.509

* * *

Biological target: CWF19L2
Experiment: pooled miR-30 sensor sort-seq; sequence = guide strand
Details: shRNA
endpoint: sensor-assay potency score (higher = more potent)
Could you respond with only the numeric value?

Known results for sequences:
[
  {
    "seq text": "TTGTTTCTCAGCTTGTTCCTTC",
    "measurement target": "CWF19L2",
    "reported value": 0.329
  },
  {
    "seq text": "TAATCTTTCTTCACTGTTCTTG",
    "measurement target": "CWF19L2",
    "reported value": 0.0595
  },
  {
    "seq text": "TAATCCACCATCTTCTACCACT",
    "measurement target": "CWF19L2",
    "reported value": -1.06
  },
  {
    "seq text": "TTAGATTCTCTTCTACACGTTT",
    "measurement target": "CWF19L2",
    "reported value": -0.587
  },
  {
    "seq text": "TTGCAGTATCTGTTGTAGCATA",
    "measurement target": "CWF19L2",
    "reported value": -0.923
  },
  {
    "seq text": "TTCTACTTTGTTTCTCAGCTTG",
    "measurement target": "CWF19L2",
    "reported value": 0.279
  },
  {
    "seq text": "TTAGTAATCGATGACACACTAC",
    "measurement target": "CWF19L2",
    "reported value": -0.494
  }
]

Consider the additional sequence presented here.
Give sensor-assay potency score (higher = more potent) for `TGTTGTAGCATATCTATCCCTT`
-0.316
